# METHOD: Cytotoxicity against mouse RAW264.7 cells assessed as cell viability at 50 uM incubated for 24 hrs by CCK8 assay relative to control
# Format: toxicity, cell-based
# CONDITION_NOTES: read-out: Activity
Kindly supply the reported viability at 24 h, 50 µM values for the records listed here.
Give bare numbers, in %.

{"columns": ["SMILES_STRUCTURE", "OBSERVED_VALUE"],
 "data": [
  ["O=C(/C=C/c1c(Cl)c(O)c(O)c(O)c1Cl)c1cccc(-c2ccc(Cl)c(Cl)c2)c1", 4.2]
]}

Respectfully, I request viability at 24 h, 50 µM for each entry included below.
1. O=C(/C=C/c1c(Cl)c(O)c(O)c(O)c1Cl)c1ccc(Cl)cc1
2. O=C(/C=C/c1c(Cl)c(O)c(O)c(O)c1Cl)c1ccc(Cl)cc1Cl
3. O=C(/C=C/c1c(Cl)c(O)c(O)c(O)c1Cl)c1ccc(C(F)(F)F)cc1
4. O=C(/C=C/c1c(Cl)c(O)c(O)c(O)c1Cl)c1c(Cl)cc(F)cc1Cl
5. O=C(/C=C/c1cc(O)c(O)c(O)c1)c1ccc(F)cc1
6. O=C(O)/C=C/c1c(Cl)c(O)c(O)c(O)c1Br
7. O=C(/C=C/c1c(Cl)c(O)c(O)c(O)c1Cl)c1c(Cl)c(O)c(O)c(O)c1Cl
8. O=C(/C=C/c1c(Cl)c(O)c(O)c(O)c1Cl)c1ccc([N+](=O)[O-])cc1

Result:
1. 22.6
2. 21.8
3. 6.9
4. 26.3
5. 100
6. 92.3
7. 82.4
8. 77.4

Q: Give the value of viability at 24 h, 50 µM reported for the following: `O=C(O)CCc1c(Cl)c(O)c(O)c(O)c1Cl`
Result: 89.7
